tested on: TK-10 renal; assay: NCI tumour cell line growth inhibition, 48 h
quantity_name: TGI

CCOC(=O)NC(OCc1ccccc1)(C(=O)OC)C(F)(F)F (stereo unspecified) ... > 100 µM
COc1ccc(OC)c(-c2cn3c(n2)sc2ccccc23)c1 ... > 100 µM
N#C[C@H]1C(=O)C(c2nc3ccccc3[nH]2)S[C@H]1c1ccccc1 (stereo partly specified) ... > 100 µM
COC(C/C=C\C=C\CC/C=C/CC(C)/C=C/C(=C\C(=O)O)CC(=O)O)/C(C)=C\C=C(/C)C(=O)O (stereo unspecified) ... > 100 µM
OCC1c2ccccc2-n2nc(-c3ccccc3)c(O)c21 (stereo unspecified) ... 34.1 µM
CC(=O)NCC1OC2COC(c3ccccc3)OC2C2N=C(c3ccccc3)OC12 (stereo unspecified) ... > 100 µM
N#CC(NNC(=O)c1ccccc1O)c1ccc(O)cc1 (stereo unspecified) ... > 100 µM
COc1cc2oc(=O)ccc2cc1C1OC(=O)C2OC21C (stereo unspecified) ... > 100 µM
Nc1cc2ncnc(Nc3cccc(Br)c3)c2cn1 ... 8.18 µM
CCCCNC(=S)Nc1nc(C(=O)NNC(=S)NCc2ccccc2)cs1 ... > 100 µM
C/C(=N\NC(=O)c1ccncc1)c1cccc(C(F)(F)F)c1 ... > 10 µM

###

system: UACC-257 melanoma; test: NCI tumour cell line growth inhibition, 48 h
GI50: recorded values
quantity_name: GI50

O=C1c2cccc3cc([N+](=O)[O-])cc(c23)C(=O)N1CCNCCNCCNCCN1C(=O)c2cccc3cc([N+](=O)[O-])cc(c23)C1=O ... 97.9 nM
COc1ccc(/C=C/C(=O)c2cc3c(N)c(C(=O)Nc4ccccc4Cl)sc3nc2C)cc1 ... 1190 nM
COc1c(O)c2c(c3cc(C(=O)N4CCc5c4c(O)c(OC)c4[nH]c(C(=O)N6CC7CC78C6=CC(=O)c6[nH]cc(C)c68)cc54)[nH]c13)CCN2C(N)=O (stereo not drawn) ... 1340 nM
COc1ccc(-n2c(SCc3cc(OC)c(OC)c(OC)c3)nc3ccc(C)cc3c2=O)c(OC)c1 ... 7810 nM
OCCCCC#Cc1ccccc1C#Cc1ccccc1 ... 19400 nM
CN(C)CCCn1c2c(c3cnccc3c1=O)C(=O)c1ccccc1-2 ... 486 nM
CC(CN(CP(=O)([O-])[O-])CP(=O)([O-])[O-])N(CP(=O)([O-])[O-])CP(=O)([O-])[O-].N.N.[Pt+2] (stereo not drawn) ... > 100000 nM
COP(=O)(OC)C(NC(c1ccccc1)c1ccccc1)c1ccc2c(c1)OCO2 (stereo not drawn) ... 31400 nM

###

test system: SF-539 CNS; assay: NCI tumour cell line growth inhibition, 48 h; in the data active means GI50 below about 0.43 µM; inactive means the rest
Possible outcomes: active, inactive

COc1ccc(-c2cc(-c3ccc(OC)c(OC)c3)nc(SCCCC(=O)NO)n2)cc1 ... inactive
COP(=O)(OC)C(NC(c1ccccc1)c1ccccc1)c1ccc2c(c1)OCO2 (stereo unspecified) ... inactive
Cc1c(C#N)cccc1-c1cc(-c2cn(Cc3cccc(C(C)(C)O)n3)nn2)nc(N)n1 ... inactive
C=C1C(=O)O[C@H]2[C@H]1CC/C(COC(=O)NCc1cc3ccccc3[nH]1)=C\CC[C@@]1(C)O[C@@H]21 ... inactive
Cc1ccc(C(=O)Nc2ccc(CN3CCN(C)CC3)c(C(F)(F)F)c2)cc1C#Cc1cnc(N)cc1C#N ... active
O=S(=O)([O-])c1cccc2cccc(N=Cc3ccccc3[O-])c12.O=S(=O)([O-])c1cccc2cccc(N=Cc3ccccc3[O-])c12.[O]=[U]=[O] ... inactive
COc1ccc(-n2c(SCc3cc(OC)c(OC)c(OC)c3)nc3ccc(C)cc3c2=O)c(OC)c1 ... inactive
CC(=O)OC[C@H]1O[C@@H](n2ccc(=O)[nH]c2=O)[C@H](OC(C)=O)[C@@H]1OC(C)=O ... inactive
NC(=O)c1cnc(N[C@@H]2CCCC[C@@H]2N)nc1Nc1cccc(-n2nccn2)c1 ... inactive
C1CC[N-]CC1.C1CC[N-]CC1.C1CC[N-]CC1.C1CC[N-]CC1.[Cl][Rh][Cl] ... inactive
OCc1cn(Cc2cccc(Cl)c2)c2ccccc12 ... inactive
